Measured values drawn from paper PMC3908897 for this set.

# Substrate: O=C(O)CCC(=O)C1=CC=C[C@@H](O)[C@@H]1C(=O)O
# experiment_description: purified protein
# Assay type: biochemical, Thermobifida fusca
# conditions_used: 50 mM Tris pH 8.0, 0.1 mM MnCl2, 25°C
Measured kcat, listed per entry for reference.

# protein, kcat / s⁻¹
data = [
    ("T. fusca OSBS (Thermobifida fusca YX) (protein) MTGRAFAIPLRTRFRGITVREGMLVRGAAGWGEFSPFAEYGPRECARWWAACYEAAELGWPAPVRDTVPVNATVPAVGPEEAARIVASSGCTTAKVKVAERGQSEANDVARVEAVRDALGPRGRVRIDVNGAWDVDTAVRMIRLLDRFELEYVEQPCATVDELAEVRRRVSVPIAADESIRRAEDPLRVRDAEAADVVVLKVQPLGGVRAALRLAEECGLPVVVSSAVETSVGLAAGVALAAALPELPYACGLATLRLLHADVCDDPLLPVHGVLPVRRVDVSEQRLAEVEIDPAAWQARLAAARAAWEQVEREPGP", 122),
    ("T. fusca OSBS (Thermobifida fusca YX; N71A) (protein) MTGRAFAIPLRTRFRGITVREGMLVRGAAGWGEFSPFAEYGPRECARWWAACYEAAELGWPAPVRDTVPVAATVPAVGPEEAARIVASSGCTTAKVKVAERGQSEANDVARVEAVRDALGPRGRVRIDVNGAWDVDTAVRMIRLLDRFELEYVEQPCATVDELAEVRRRVSVPIAADESIRRAEDPLRVRDAEAADVVVLKVQPLGGVRAALRLAEECGLPVVVSSAVETSVGLAAGVALAAALPELPYACGLATLRLLHADVCDDPLLPVHGVLPVRRVDVSEQRLAEVEIDPAAWQARLAAARAAWEQVEREPGP", 10),
]
